Kindly state IC50 for each of the entries shown.
Molecular target: mouseP2X7 (Mus musculus)
Sequence (Q9Z1M0 whole entry): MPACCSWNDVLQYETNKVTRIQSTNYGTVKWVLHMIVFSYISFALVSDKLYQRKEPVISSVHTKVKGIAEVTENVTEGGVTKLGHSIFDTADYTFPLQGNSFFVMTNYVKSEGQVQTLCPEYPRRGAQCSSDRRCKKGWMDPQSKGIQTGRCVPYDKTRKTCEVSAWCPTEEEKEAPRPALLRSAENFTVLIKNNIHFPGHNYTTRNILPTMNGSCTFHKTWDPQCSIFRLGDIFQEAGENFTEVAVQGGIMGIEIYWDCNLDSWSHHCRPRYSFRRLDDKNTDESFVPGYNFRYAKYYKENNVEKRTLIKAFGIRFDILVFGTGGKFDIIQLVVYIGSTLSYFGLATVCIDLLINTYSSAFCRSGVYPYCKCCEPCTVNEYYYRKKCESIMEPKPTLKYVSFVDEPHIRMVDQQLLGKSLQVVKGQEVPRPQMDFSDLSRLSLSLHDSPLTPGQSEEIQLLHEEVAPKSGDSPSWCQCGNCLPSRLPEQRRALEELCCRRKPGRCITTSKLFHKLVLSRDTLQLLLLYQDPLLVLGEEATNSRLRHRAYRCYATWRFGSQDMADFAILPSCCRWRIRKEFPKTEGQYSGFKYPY
Assay: P2X7 channel calcium-influx assay (Fluo-8, FLIPR TETRA), mouse P2X7
Settings: HEK-293 cells stably transfected with P2X7; Bz-ATP at EC80; low divalent cation buffer; read-out: mouseP2X7 (activity range)

Cn1nc(CC2CCC(F)(F)CC2)n(Cc2c(F)cccc2Cl)c1=O ... 1000 to 10000 nM
Cn1nc(Cc2c(F)cccc2Cl)n(CC2CCC(F)(F)C2)c1=O (stereo not drawn) ... 1000 to 10000 nM
Cn1nc(Cc2ccccc2F)n(CC2CCCCC2(C)C)c1=O (stereo not drawn) ... 1000 to 10000 nM
Cn1nc(Cc2ccc(F)cc2Cl)n(CC2CCC(F)(F)C2)c1=O (stereo not drawn) ... 1000 to 10000 nM
Cn1nc(Cc2c(F)cccc2Cl)n(Cc2ccc(F)cc2)c1=O ... 1000 to 10000 nM

# per-item lookup of IC50; items listed below
1. O=c1n(CC(F)(F)F)nc(Cc2ccccc2Cl)n1CC1CCC(F)(F)CC1
2. Cn1nc(Cc2c(F)cccc2Cl)n(CC2CCCCCC2)c1=O
3. Cn1nc(Cc2c(F)cccc2Cl)n(CCN2CCOCC2(C)C)c1=O
4. Cn1nc(Cc2ccccc2C(F)(F)F)n(CC2CCCCC2)c1=O
5. O=c1n(CC(F)(F)F)nc(Cc2c(F)cccc2Cl)n1CC1CCC(F)(F)CC1
6. Cn1nc(Cc2ccc(F)cc2)n(Cc2cc(-c3ncc(F)cn3)ccc2Cl)c1=O

OUT:
< 200 nM
< 200 nM
10000 to 30000 nM
1000 to 10000 nM
< 200 nM
10000 to 30000 nM

# per-item lookup of IC50; items listed below
1. O=c1n(Cc2ccccc2)nc(Cc2c(F)cccc2Cl)n1CC1CCC(F)(F)CC1
2. Cn1nc(CC2CCCCCC2)n(Cc2c(F)cccc2Cl)c1=O
3. Cn1nc(Cc2ccccc2F)n(CCC2CCC(C)(C)CC2)c1=O
4. Cn1nc(Cc2ccc(F)cc2Cl)n(CC2CCCCCC2)c1=O

OUT:
1. < 200 nM
2. 200 to 1000 nM
3. 10000 to 30000 nM
4. 200 to 1000 nM
